Provide the reported EC50 of each item.
tested system: T1, Biotin Y46,48,51(SO3) PSGL-1(42-62) peptide (human, sulfotyrosine at Y46, Y48 and Y51; C-terminal Lys-biotin)
T1 construct: also called fully sulfated N-terminal PSGL-1 peptide
T1 peptide: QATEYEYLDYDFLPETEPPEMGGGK
test method notes: ELISA, plate-bound target
Give the quantity in nM, number only.

Q: Find the recorded EC50 belonging to 19I01 (antibody, V domains shown, From mouse immunisation; only variable domains given; also called 19101) VH: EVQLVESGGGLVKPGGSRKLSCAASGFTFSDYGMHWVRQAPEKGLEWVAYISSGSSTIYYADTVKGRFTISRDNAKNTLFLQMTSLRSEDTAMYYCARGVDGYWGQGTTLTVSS VL: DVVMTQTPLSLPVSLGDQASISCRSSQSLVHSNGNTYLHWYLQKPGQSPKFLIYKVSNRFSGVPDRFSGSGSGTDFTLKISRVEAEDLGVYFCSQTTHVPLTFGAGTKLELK and report it.
Result: 0.92

Q: Find the recorded EC50 belonging to 5E12 (antibody, V domains shown, Mouse hybridoma mAb; only variable domains given) VH: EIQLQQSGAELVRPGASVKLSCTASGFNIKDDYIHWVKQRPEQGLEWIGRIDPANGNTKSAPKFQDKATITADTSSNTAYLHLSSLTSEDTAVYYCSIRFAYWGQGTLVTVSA VL: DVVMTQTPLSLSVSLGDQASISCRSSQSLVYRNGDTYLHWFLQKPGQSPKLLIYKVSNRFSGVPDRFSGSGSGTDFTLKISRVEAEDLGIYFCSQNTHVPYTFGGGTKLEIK and report it.
Result: 0.92

Q: Find the recorded EC50 belonging to 16L15 (antibody, V domains shown, From mouse immunisation; only variable domains given) VH: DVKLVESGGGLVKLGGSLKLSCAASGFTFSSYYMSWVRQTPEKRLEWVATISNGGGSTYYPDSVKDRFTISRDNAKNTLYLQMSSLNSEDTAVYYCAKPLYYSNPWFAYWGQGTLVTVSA VL: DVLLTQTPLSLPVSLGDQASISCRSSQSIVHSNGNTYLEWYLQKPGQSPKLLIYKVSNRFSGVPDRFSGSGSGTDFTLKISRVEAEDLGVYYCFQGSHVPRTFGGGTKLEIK and report it.
Result: 0.92
